All values here come from patent US20100286164A1.

# system-tested: γ-secretase (C100FLAG APP-based substrate) (Homo sapiens, UniProt P49768)
# Construct: made in house; host or cells: S-1 CHO cell line (Chinese hamster ovary)
# protocol: In vitro γ-secretase assay, C-100 Flag (APP-based substrate) cleavage
# Type: biochemical
# condition-parameters: effect on C-100 Flag cleavage; compounds tested in vitro at 100 μM
measurement-type: γ-Secretase Assay C-100 Flag

>  <molecule>
CCOc1ccc(NCCC(O)c2ccc3ccccc3c2)cc1 (stereo not shown) [Example 32]

>  <γ-Secretase Assay C-100 Flag>
Inh

$$$$
>  <molecule>
COc1ccc(CN(CCC(O)c2ccc3ccccc3c2)C(C)C)cc1 (stereo not shown) [Example 29]

>  <γ-Secretase Assay C-100 Flag>
Inh

$$$$
>  <molecule>
CCN(CCC(O)c1ccc2ccccc2c1)Cc1ccccc1 (stereo not shown) [Example 12]

>  <γ-Secretase Assay C-100 Flag>
Enh

$$$$
>  <molecule>
CC(C)N(CCC(O)c1ccc2ccccc2c1)Cc1cc(F)cc(F)c1 (stereo not shown) [Example 31]

>  <γ-Secretase Assay C-100 Flag>
Inh

$$$$
>  <molecule>
CCOc1ccc(NCCC(O)c2ccc(F)cc2)cc1 (stereo not shown) [Example 79]

>  <γ-Secretase Assay C-100 Flag>
Enh

$$$$

Ask: Could you share which γ-Secretase Assay C-100 Flag value was measured for CC(C)N(Cc1ccccc1)CC(O)c1ccc2ccccc2c1 (stereo not shown) [Example 82] ?
Result: Inh

Ask: γ-Secretase Assay C-100 Flag lookup needed for OC(CCNc1ccc(Oc2ccccc2)cc1)c1ccc2ccccc2c1 (stereo not shown) [Example 77] , thanks.
Result: Inh

Ask: Looking for the measured γ-Secretase Assay C-100 Flag of OC(CCN1CCN(c2ccc(F)cc2)CC1)c1ccc2ccccc2c1 (stereo not shown) [Example 14] , can you help?
Result: Inh

Ask: Reported γ-Secretase Assay C-100 Flag, molecule OC(CCNc1ccccc1)c1ccc2ccccc2c1 (stereo not shown) [Example 10] : ____
Result: Enh

Ask: If you can, please state the reported γ-Secretase Assay C-100 Flag value of O=[N+]([O-])c1cc(NCCC(O)c2ccc3ccccc3c2)ccc1Cl (stereo not shown) [Example 83] .
Result: Inh

Ask: γ-Secretase Assay C-100 Flag lookup needed for CC(C)N(CCC(O)c1ccc2ccccc2c1)Cc1ccc(F)c(F)c1 (stereo not shown) [Example 18] , thanks.
Result: Inh

Ask: # input molecule: CC(C)N(CCC(O)c1cccc2ccccc12)Cc1ccccc1 (stereo not shown) [Example 19] ; wanted: its γ-Secretase Assay C-100 Flag
Result: Inh

Ask: γ-Secretase Assay C-100 Flag for CC(C)N(CCC(O)c1ccc2ccccc2c1)Cc1ccc(Cl)c(Cl)c1 (stereo not shown) [Example 17] ?
Result: Inh

Ask: // query γ-Secretase Assay C-100 Flag value for entry OC(CCN1CCN(c2cccc(C(F)(F)F)c2)CC1)c1ccc2ccccc2c1 (stereo not shown) [Example 13]
Result: Enh

Ask: What does the data say about its γ-Secretase Assay C-100 Flag? Entry: OC(CCNc1ccc(F)c(Cl)c1)c1ccc2ccccc2c1 (stereo not shown) [Example 33]
Result: Inh

###

# system-tested: γ-secretase (Aβ1-40 production) (Homo sapiens, UniProt P49768)
# Construct: made in house; host or cells: S-1 CHO cell line (Chinese hamster ovary)
# protocol: γ-Secretase assay, Aβ1-40 ELISA
# Format: biochemical
# condition-parameters: 100 μM
# Text: Purification of γ-Secretase and in Vitro γ-Secretase Assays—The following procedures can be used to isolate γ-secretase and measure its enzymatic activity. […] Naphthyl Amine Alcohol Analogs and Assay Data—Compounds listed in Table 2 may be assayed as described herein (e.g., in Examples 3 and 4) and the specificity may be evaluated by comparing the relative inhibitions of C-100 Flag and N-100 Flag cleavage. […]
measurement-type: γ-Secretase Assay ELISA % Inhibition [100 μM] Aβ1-40 (%)

As a guide, the following entries are already answered.
>  <molecule>
CN(CCC(O)c1ccc2ccccc2c1)Cc1ccccc1 (stereo not shown) [Example 8]

>  <unit-spec>
%

>  <assay-result>
15

$$$$
>  <molecule>
CN(CCC(O)c1ccc2ccccc2c1)Cc1ccccc1 (stereo not shown) [Example 44]

>  <unit-spec>
%

>  <assay-result>
56

$$$$

I = CC(CN(Cc1ccccc1)C(C)C)C(O)c1ccc2ccccc2c1 (stereo not shown) [Example 87]
II = CC(CN(Cc1ccccc1)C(C)C)C(O)c1ccc2ccccc2c1 (stereo not shown) [Example 88]
Ask: Please tell me which of the two, I or II , has the higher reported γ-Secretase Assay ELISA % Inhibition [100 μM] Aβ1-40 value. Give the chosen item's label as your response.
Result: II
(II: 66%, I: 22%)

###

# system-tested: γ-secretase (Aβ1-40 production) (Homo sapiens)
# Construct: made in house; host or cells: S-1 CHO cell line (Chinese hamster ovary)
# protocol: γ-Secretase assay, Aβ1-40 ELISA
# Assay type: biochemical
# condition-parameters: 100 μM
# From the text: Purification of γ-Secretase and in Vitro γ-Secretase Assays—The following procedures can be used to isolate γ-secretase and measure its enzymatic activity. […] Naphthyl Amine Alcohol Analogs and Assay Data—Compounds listed in Table 2 may be assayed as described herein (e.g., in Examples 3 and 4) and the specificity may be evaluated by comparing the relative inhibitions of C-100 Flag and N-100 Flag cleavage. […]
measurement-type: inhibition at 100 µM (%)

// worked examples, inhibition at 100 µM included
>  <compound>
OC(CCNc1ccc(F)c(Cl)c1)c1ccc2ccccc2c1 (stereo not drawn)

>  <inhibition at 100 µM (%)>
40

$$$$
>  <compound>
Cc1cc(C)c(C(O)CCN(Cc2ccccc2)C(C)C)c(C)c1 (stereo not drawn)

>  <inhibition at 100 µM (%)>
0

$$$$
>  <compound>
OC(CCN(Cc1ccccc1)Cc1ccccc1)c1ccc2ccccc2c1 (stereo not drawn)

>  <inhibition at 100 µM (%)>
32

$$$$
>  <compound>
OC(CCN1CCN(c2cccc(C(F)(F)F)c2)CC1)c1ccc2ccccc2c1 (stereo not drawn)

>  <inhibition at 100 µM (%)>
38

$$$$
>  <compound>
CC(C)N(CCC(O)c1ccc2c(c1)OCO2)Cc1ccccc1 (stereo not drawn)

>  <inhibition at 100 µM (%)>
0

$$$$

A = OC(CN1CCN(c2ccccc2)CC1)c1ccc2ccccc2c1 (stereo not drawn)
B = OC(CCN1CCCCCCC1)c1ccc2ccccc2c1 (stereo not drawn)
C = O=[N+]([O-])c1cc(NCCC(O)c2ccc3ccccc3c2)ccc1Cl (stereo not drawn)
D = CC(C)N(CCC(O)c1ccc2ccccc2c1)Cc1ccc(C(=O)O)cc1 (stereo not drawn)
Ask: Could you please order the items by inhibition at 100 µM, going from the lowest number to the highest? // format: requested-order list of labels
Result: A, D, B, C

###

# system-tested: γ-secretase (Aβ1-40 production) (Homo sapiens, UniProt P49768)
# Construct: made in house; host or cells: S-1 CHO cell line (Chinese hamster ovary)
# protocol: γ-Secretase assay, Aβ1-40 ELISA
# Type: biochemical
# condition-parameters: 100 μM
measurement-type: inhibition at 100 µM (%)

>  <compound>
CN(CCC(O)c1ccc2ccccc2c1)c1ccc(Oc2ccccc2)cc1 (stereo not drawn)

>  <assay-result>
6

$$$$
>  <compound>
CC(C)N(CCC(O)c1ccc2ccccc2c1)Cc1ccc(F)c(F)c1 (stereo not drawn)

>  <assay-result>
64

$$$$
>  <compound>
COc1ccc2cc(C(O)CCN(Cc3ccccc3)C(C)C)ccc2c1 (stereo not drawn)

>  <assay-result>
10

$$$$
>  <compound>
CC(C)(C)N(CCC(O)c1ccc2ccccc2c1)Cc1ccccc1 (stereo not drawn)

>  <assay-result>
0

$$$$
>  <compound>
CC(C)CN(CCC(O)c1ccc2ccccc2c1)CC(C)C (stereo not drawn)

>  <assay-result>
0

$$$$

P = CC(C)N(CCC(O)c1ccccc1CN1CCCCC1)Cc1ccccc1 (stereo not drawn)
Q = CC(C)N(CCCC(O)c1ccc2ccccc2c1)Cc1ccccc1 (stereo not drawn)
Ask: Among P and Q , which shows a numerically higher inhibition at 100 µM result? Give the chosen item's label as your response.
Result: Q
(Q: 2%, P: 0%)

A = CC(C)N(CCC(O)c1ccc(OC2CCCCO2)cc1)Cc1ccccc1 (stereo not drawn)
B = CC(C)N(CCC(O)c1ccc2ccccc2c1)Cc1cc(F)cc(F)c1 (stereo not drawn)
Ask: Of the two listed items, which has the higher inhibition at 100 µM? First: A Second: B Refer to your chosen item by its label in the answer.
Result: B
(B: 54%, A: 0%)

1 = OC(CCNc1cc(F)ccc1F)c1ccc2ccccc2c1 (stereo not drawn)
2 = CC(C)N(CCC(O)c1ccc(Oc2ccccc2)cc1)Cc1ccccc1 (stereo not drawn)
3 = OC(CCN(Cc1ccccc1)C1CC1)c1ccc2ccccc2c1 (stereo not drawn)
4 = OC(CCN1CCN(c2ccc(F)cc2)CC1)c1ccc2ccccc2c1 (stereo not drawn)
5 = CC(C)N(CCC(O)c1ccc(OC(F)(F)F)cc1)Cc1ccccc1 (stereo not drawn)
Ask: Thanks in advance: please rank these 5 entries by inhibition at 100 µM, highest to lowest. Returns: the labels listed in the requested order.
Result: 4, 3, 2, 5, 1
